System: HL-60(TB) leukemia
Protocol Text: NCI-60 one-dose screen, 48 h (100 = growth as untreated, 0 = no growth, -100 = all killed)
Experimental Setup: 10 µM unless noted
This is part of a sample that, as a whole, favours compounds with a hit. Of some 83,000 tested, about 20% had one in any assay.
The label depends only on growth: class 1 if it is at least 80%, class 0 if it is smaller.

Molecule | Cat
COc1ccc(/C=C2\SC(=Nc3ccccc3)NC2=O)cc1 | class 0
Cn1c2c(c(=O)[nH]c1=O)NC1=C(C(=O)c3ccccc31)C1(C=C(O)c3ccccc31)N2 (configuration not stated) | class 1
C[C@]12CC[C@@H]3c4cc(OC(F)F)c(O)cc4CC[C@H]3[C@@H]1CC[C@@H]2OS(N)(=O)=O | class 0
CCNC(=O)Oc1ccc(/C(=C(/CC)Cc2ccccc2)c2ccc(OCCN3CCOCC3)cc2)cc1 | class 0
C/C=C/C/C=C/[C@H](C)C[C@H](O)[C@@H]1C[C@@H]2O[C@H]2/C=C/[C@H](O)[C@@H](O)/C=C/C[C@H](C)CC(=O)O1 | class 0
COc1ccc2oc(=O)cc(C(c3ccc[nH]3)c3ccc[nH]3)c2c1 | class 0
CCCOc1nc(SCCC)nc2c1cnn2-c1ccccc1 | class 1
